B1: Formin-binding protein 4, residues 200 to 261; numbered along this chain, Q8N3X1 (parent)
chain: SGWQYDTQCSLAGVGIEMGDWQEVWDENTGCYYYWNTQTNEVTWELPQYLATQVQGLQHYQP

# Variants of: B1
# run description: abundance fitness (aPCA) (normalised: wild type 0, dead -1); higher = more abundant; growth selection in yeast, the domain comes from the species named
# reported conditions: Homo sapiens
measured endpoint: abundance fitness

mut	measured endpoint	assay result
Q8C	abundance fitness	-0.188
G56P	abundance fitness	-0.178
Q48R	abundance fitness	-0.061
E41K	abundance fitness	-0.081
D20K	abundance fitness	-0.287
Q8R	abundance fitness	0.046
S1W	abundance fitness	-0.075
Y32R	abundance fitness	-0.792
L46V	abundance fitness	-0.303
Y32L	abundance fitness	-0.633
Y5A	abundance fitness	-0.416
P47Q	abundance fitness	-1.23
L50N	abundance fitness	-1.06
Y60P	abundance fitness	0.113
